# TEST DETAILS: in vivo
# Parameters: species or system SD strain male rats
# EXPERIMENTAL SETUP: rat, im
QUANTITY MEASURED: AUC (µg·h/mL)

Here's what some known entries look like.
>>> obs_value("Cc1nnc(SCC2=C(C(=O)O)N3C(=O)[C@@H](NC(=O)Cn4cnnn4)[C@H]3SC2)s1")
348
>>> obs_value("CN(C)CCn1nnnc1SCC1=C(C(=O)O)N2C(=O)[C@@H](NC(=O)Cc3csc(N)n3)[C@H]2SC1")
38.7
>>> obs_value("CC1(C)S[C@@H]2[C@H](NC(=O)[C@H](N)c3ccccc3)C(=O)N2[C@H]1C(=O)O")
14.8
>>> obs_value("CO/N=C(\\C(=O)N[C@@H]1C(=O)N2C(C(=O)O)=CCS[C@H]12)c1csc(N)n1")
77.8
>>> obs_value("NC(=O)c1cc[n+](CC2=C(C(=O)O)N3C(=O)[C@@H](NC(=O)[C@@H](c4ccccc4)S(=O)(=O)[O-])[C@H]3SC2)cc1 [Cefsulodin sodium]")
54

a: CC1(C)S[C@@H]2[C@H](/N=C/N3CCCCCC3)C(=O)N2[C@H]1C(=O)O
b: CO/N=C(\C(=O)N[C@@H]1C(=O)N2C(C(=O)O)=C(CSc3nnnn3C)CS[C@H]12)c1csc(N)n1 [Cefmenoxime (1/2HCl)]
Problem: Lowest AUC? choose a or b Give the label under which the chosen entry appears.
Solution: a
(a: 105 µg·h/mL, b: 190 µg·h/mL)

Sourced from patent EP0033241A2
